# test system: SARS-CoV-2 Spike on pseudotyped virus (PsV) (SARS-CoV-2, UniProt P0DTC2 14-1273)
# run description: cell-based or functional assay
measurement name: Median IC50, SARS-CoV-2 PsV neutralization

binder	endpoint result
mAb 254 (antibody, V domains shown) VH: EVQLLESGGGLVQPGGSLRLSCAASGFTFSSSAMHWVRQAPGKGLEWVSAIGTGGDTYYADSVKGRFTISRDNSKNTLYLQMNSLRAEDTAVYYCAREGDGYNFYFDYWGQGTLVTVSS VL: DIQMTQSPSSLSASVGDRVTITCRASQGISSYLAWYQQKPGKAPKLLIYDASSLQIGVPSRFSGSGSGTDFTLTISSLQPEDFATYYCLQSYSTPPWTFGQGTKVEIKR	> 50 µg/mL
mAb 160 (antibody, V domains shown) VH: QVQLVQSGAEVKKPGASVKVSCKASGYTFTGHDMHWVRQAPGQGLEWMGIINPSGGSTSYAQKFQGRVTMTRDTSTSTVYMELSSLRSEDTAVYYCARANSLRYYYGMDVWGQGTMVTVSS VL: DIQMTQSPSSLSASVGDRVTITCRASQSVSSWLAWYQQKPGKAPKLLIYAASSLQSGVPSRFSGSGSGTDFTLTISSLQPEDFATYYCQQGYTTPYTFGQGTKLEIKR	> 50 µg/mL
mAb 46 (antibody, V domains shown) VH: EVQLLESGGGLVQPGRSLRLSCAASGFTFSSYAMSWVRQAPGKGLEWVSTIYSGGSTYYADSVKGRFTISRDNSKNTLYLQMNSLRAEDTAVYYCARGDSRDAFDIWGQGTMVTVSS VL: DIQMTQSPSSLSASVGDRVTITCRASQSISSWLAWYQQKPGKAPKLLIYDASNLETGVPSRFSGSGSGTDFTLTISSLQPEDFATYYCQQSYSTPFTFGPGTKVDIKR	2.1 µg/mL
